Where do the numbers come from? From ChEMBL document CHEMBL4321820.

assay: Substrate activity at AOC4 in dog serum assessed as compound oxidation by measuring oxidative turnover at 30 uM measured for 40 mins by horseradish peroxidase-coupled amplex red reagent-based fluorometric assay relative to DMSO; format: ADME, cell-free, Canis lupus familiaris
Measurement Type: fold change (FC)
Number, no unit, nothing else.

For Cc1c(-c2cccc(S(=O)(=O)N(C)C)c2)c2cc(Cl)ccc2n1C/C(F)=C/CN.Cl , what is its reported fold change (FC)? 1.1

Cc1c(-c2cccc(S(=O)(=O)N(C)C)c2)c2ncccc2n1C/C(F)=C/CN.Cl ? 6.4

Cc1c(-c2cccc(S(=O)(=O)N(C)C)c2)c2cc(C(=O)N(C)C)ccc2n1C/C(F)=C/CN.Cl ? 1

Cc1c(-c2cccc(S(=O)(=O)N(C)C)c2)c2cc(C(=O)O)ccc2n1C/C(F)=C/CN.Cl ? 1

Cc1c(-c2cccc(S(=O)(=O)N(C)C)c2)c2cccc(C(=O)N(C)C)c2n1C/C(F)=C/CN.Cl ? 1.4
